- STUDY SYSTEM: LATS2 (Homo sapiens, UniProt Q9NRM7)
- Sequence (Q9NRM7 whole entry): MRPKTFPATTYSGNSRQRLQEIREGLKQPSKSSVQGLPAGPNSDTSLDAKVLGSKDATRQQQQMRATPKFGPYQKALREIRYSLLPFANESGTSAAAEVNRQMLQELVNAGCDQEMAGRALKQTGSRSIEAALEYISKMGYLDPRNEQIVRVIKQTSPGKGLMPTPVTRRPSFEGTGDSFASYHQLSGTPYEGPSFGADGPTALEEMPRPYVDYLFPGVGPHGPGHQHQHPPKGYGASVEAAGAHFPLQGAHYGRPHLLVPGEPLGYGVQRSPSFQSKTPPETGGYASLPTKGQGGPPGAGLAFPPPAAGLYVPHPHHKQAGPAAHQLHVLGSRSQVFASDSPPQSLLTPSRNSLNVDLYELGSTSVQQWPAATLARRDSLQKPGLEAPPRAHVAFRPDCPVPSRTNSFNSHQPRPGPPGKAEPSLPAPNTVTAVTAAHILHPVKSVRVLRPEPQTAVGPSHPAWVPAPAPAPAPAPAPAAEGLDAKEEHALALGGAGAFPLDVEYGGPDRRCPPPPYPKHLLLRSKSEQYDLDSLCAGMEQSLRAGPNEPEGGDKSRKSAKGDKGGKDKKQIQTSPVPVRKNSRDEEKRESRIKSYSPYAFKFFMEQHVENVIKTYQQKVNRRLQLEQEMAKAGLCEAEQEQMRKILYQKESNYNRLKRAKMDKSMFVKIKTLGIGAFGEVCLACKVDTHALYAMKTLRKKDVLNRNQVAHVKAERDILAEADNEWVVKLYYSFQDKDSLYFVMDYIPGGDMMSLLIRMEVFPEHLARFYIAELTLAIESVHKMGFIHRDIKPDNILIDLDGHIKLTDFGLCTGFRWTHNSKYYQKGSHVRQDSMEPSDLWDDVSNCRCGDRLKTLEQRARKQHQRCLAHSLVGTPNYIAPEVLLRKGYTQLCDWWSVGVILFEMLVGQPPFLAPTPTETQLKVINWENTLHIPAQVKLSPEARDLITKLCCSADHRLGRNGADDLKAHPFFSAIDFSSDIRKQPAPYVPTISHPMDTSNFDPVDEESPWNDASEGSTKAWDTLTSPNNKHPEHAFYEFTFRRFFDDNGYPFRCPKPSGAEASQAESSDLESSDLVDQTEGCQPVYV
- TEST DETAILS: RBC HotSpot kinase assay (33P-ATP, P81 filter-binding), LATS2
- Type: biochemical
- RECORDED CONDITIONS: Table 28, biochemical kinase assay; read-out: LATS2 IC50
MEASUREMENT NAME: IC50 (nM)
# number only, unit nM dropped from output

Record excerpt, results attached:
- MOLECULE: "COC(=O)c1c[nH]c2nccc(-c3ccc(C(C)(C)N)cc3)c12"
  MEASUREMENT UNIT: "nM"
  REPORTED RESULT: 13
- MOLECULE: "CCN(CC)c1cc(-c2ccnc3[nH]ccc23)ccc1CN"
  MEASUREMENT UNIT: "nM"
  REPORTED RESULT: 23
- MOLECULE: "C[C@@H]1CN(C2CCNCC2)C[C@H](C)[C@@]1(O)c1c(F)cc(-c2ccnc3[nH]cc(F)c23)cc1F"
  MEASUREMENT UNIT: "nM"
  REPORTED RESULT: 4.6
- MOLECULE: "C[C@@H]1CN(C2CCC2)C[C@H](C)[C@@]1(O)c1ccc(-c2ccnc3[nH]cc(F)c23)cc1Cl"
  MEASUREMENT UNIT: "nM"
  REPORTED RESULT: 2.7
- MOLECULE: "Fc1cccc(CNCc2ccc(-c3ccnc4[nH]ccc34)cc2)c1"
  MEASUREMENT UNIT: "nM"
  REPORTED RESULT: 25.6
- MOLECULE: "CN1CCC(c2ccc(-c3ccnc4[nH]cc(F)c34)cc2Cl)CC1"
  MEASUREMENT UNIT: "nM"
  REPORTED RESULT: 31
- MOLECULE: "OC1(c2ccc(-c3ccnc4[nH]cc(Br)c34)cc2)CCNCC1"
  MEASUREMENT UNIT: "nM"
  REPORTED RESULT: 3.2
- MOLECULE: "c1cc(-c2ccc(C3CCNCC3)cc2)c2cc[nH]c2n1"
  MEASUREMENT UNIT: "nM"
  REPORTED RESULT: 75
- MOLECULE: "Cc1nc(-c2ccnc3[nH]cc(F)c23)ccc1[C@@]1(O)[C@H](C)CN(C2CCC2)C[C@@H]1C"
  MEASUREMENT UNIT: "nM"
  REPORTED RESULT: 24.7
- MOLECULE: "O=C([C@@H]1CCCN1)N1CC(O)(c2ccc(-c3ccnc4[nH]cc(F)c34)cc2Cl)C1"
  MEASUREMENT UNIT: "nM"
  REPORTED RESULT: 26

Return reported IC50. Input molecule: "C[C@@H]1CN(C)C[C@H](C)[C@@]1(O)c1ccc(-c2ccnc3[nH]ccc23)cc1" 27

Return reported IC50. Input molecule: "CN1CCC(O)(c2ccc(-c3ccnc4[nH]cc(-c5cccnc5)c34)cc2)CC1" 36

Return reported IC50. Input molecule: "Cc1cnc(C2(c3ccc(-c4ccnc5[nH]cc(F)c45)cc3)CCNCC2)o1" 20

Return reported IC50. Input molecule: "Cc1cc(-c2ccnc3[nH]cc(F)c23)ncc1[C@@]1(O)[C@H](C)CN(C2CCS(=O)(=O)CC2)C[C@@H]1C" 4250

Return reported IC50. Input molecule: CN1CC2CC(C1)C2(O)c1ccc(-c2ccnc3[nH]cc(F)c23)cc1Cl (stereo not drawn) 116

Return reported IC50. Input molecule: "Fc1ccc(CNCc2ccc(-c3ccnc4[nH]ccc34)cc2)cc1" 29.3

Return reported IC50. Input molecule: "C[C@@H]1CN(CC(N)=O)C[C@H](C)[C@@]1(O)c1c(F)cc(-c2ccnc3[nH]cc(F)c23)cc1F" 2.9

Return reported IC50. Input molecule: "CC(C)(N)c1ccc(-c2ccnc3[nH]ccc23)cc1" 1.2
